Reference source for all entries: PubChem BioAssay AID1159580

# protocol.details: chemical genetic growth profiling, strain panel (AID 1159580);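 note: tested at 20 µM; growth read once vehicle control cultures reached saturation at 30 °C; 1 = growth at the plate median or of vehicle wells; lower values mean less growth of the strain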
# protocol.conditions: S. cerevisiae deletion strains, growth OD, locus YOR080W, strain dia2, active compounds read low
The whole screen tested about 5,500 compounds, of which about 2,000 (36%) were called active. Inconclusive results (about 18%) are left out. Some of the results follow.
# Lookup of reported normalized growth keyed by entry
test.readout: normalized growth

compound | test.readout | meas.value
O=C(O)C1=C[C@@H](O)[C@@H](O)[C@H](O)C1 | normalized growth | 0.99
CC1(C)C2CC(=O)[C@]3(C)C(CC[C@@]4(C)[C@H](c5ccoc5)OC(=O)[C@H]5O[C@]543)[C@@]2(C)C(=O)C[C@H]1O (some centres undefined) | normalized growth | 0.997
C=C1CCC2(OC1)OC1CC3C4CC=C5CC(O)CC(O)C5(C)C4CCC3(C)C1C2C (centres undefined) | normalized growth | 1.02
CC1(C)C=CC(=O)[C@@]2(C)C1CC(=O)[C@]1(C)C2CC[C@@]2(C)[C@H](c3ccoc3)OC(=O)C3OC321 (some centres undefined) | normalized growth | 1
